# Test system: STK35
# EXPERIMENTAL_PARAMETERS: Compound Concentration (nM):1000;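 also: KINOMEscan scanMAX binding as percent activity remaining versus control; lower means stronger binding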

MOLECULE | Percent Control / %
CC(C)COC(=O)c1ccc2c(c1)/C(=C/Nc1ccc(S(N)(=O)=O)cc1)C(=O)N2 [GW416981X] | 100
COc1ccc2[nH]c3c4[nH]c5ccc(OC)cc5c4c4c(c3c2c1)C(=O)NC4=O [GW296115X] | 80
CN(C)c1cc2c(Nc3ccc4c(cnn4Cc4ccccc4)c3)ncnc2cn1 [GW282974X] | 100
COc1cc(/C=N/Nc2ncnc3[nH]ncc23)ccc1O [GW578748X] | 100
CCc1ccc(Oc2nccc(-c3c(-c4ccc(F)cc4)ncn3C3CCNCC3)n2)cc1 | 100
COc1cccc(-c2c[nH]c3c(N/N=C/c4ccncc4)ncnc23)c1 [GW814408X] | 100
Cl.O=C(Nc1ccc(Oc2ccc3[nH]c(NC(=O)c4ccco4)nc3c2)cc1)Nc1cc(C(F)(F)F)ccc1F [GW683134A] | 81
Cl.O=C(Nc1ccc(Oc2ccc3[nH]c(NC(=O)c4ccccc4)nc3c2)cc1)Nc1cc(C(F)(F)F)ccc1F [GW709042A] | 95

---

# System: ABL1(T315I)-phosphorylated
# EXPERIMENTAL_PARAMETERS: Compound Concentration (nM):1000
True if Percent Control is below 80%. False if not; exact matches included in False.

COMPOUND | GROUP
CC(C)COC(=O)c1ccc2c(c1)/C(=C/Nc1ccc(S(N)(=O)=O)cc1)C(=O)N2 [GW416981X] | True
Nc1ncnc2occ(-c3ccc(NC(=O)Nc4cc(C(F)(F)F)ccc4F)cc3)c12 [GW770249X] | True
COC(=O)Nc1nc2ccc(Oc3ccc(NC(=O)Nc4cc(C(F)(F)F)ccc4F)cc3)cc2s1.Cl [GW693917A] | True
COc1cc2ncn(-c3cc(O[C@H](C)c4ccccc4Cl)c(C(N)=O)s3)c2cc1OC [GSK237701A] | True
NS(=O)(=O)c1ccc(N/N=C2\C(=O)Nc3ccc(C(=O)NCc4ccncc4)cc32)cc1 [GW300657X] | False
CCS(=O)(=O)c1ccc(OC)c(Nc2ncc(-c3cccc(F)c3)o2)c1 [GW621970X] | False
Cc1cc(O)cc(C)c1/C=C/c1cncc(C(N)=O)c1 [GW435821X] | False
CN1CCN(C(=O)c2ccc(NC(=O)Nc3ccc(N(C)c4ccnc(Nc5ccc(CS(C)(=O)=O)cc5)n4)cc3)cc2)CC1.Cl [GW830263A] | True
CCn1c(-c2nonc2N)nc2c(C#CC(C)(C)O)nc(OCCNC)cc21.Cl | False
CC1=C(C(=O)Nc2ccc3[nH]ncc3c2)C(c2ccc(Cl)c(Cl)c2)CC(=O)N1 (centres unmarked) [GSK299115A] | False
NS(=O)(=O)c1ccc(N/N=C2\C(=O)Nc3ccc(Cl)cc32)cc1 [GW280670X] | False
NS(=O)(=O)c1ccc(N/N=C2\C(=O)Nc3ccc(C(=O)NCCc4c[nH]cn4)cc32)cc1 [GW300660X] | False
NS(=O)(=O)c1ccc(N/N=C2\C(=O)Nc3ccc(-c4cnco4)cc32)cc1 | True
COc1cc(C=NNc2ncnc3c2cnn3-c2ccccc2)ccc1O [GW513184X] | True
COc1ccc2cc(-c3c(-c4ccncc4)nc(-c4ccc(S(C)(=O)=O)cc4C)n3C)ccc2c1 | True
COc1cc2ncnc(Nc3ccc4c(cnn4Cc4ccccc4)c3)c2cc1OC.Cl [GW282449A] | False
